- System: MDA-MB-435 melanoma
- assay.text: NCI-60 one-dose screen, 48 h (100 = growth as untreated, 0 = no growth, -100 = all killed)
- experimental.conditions: 10 µM unless noted
About 83,000 compounds went through this panel and 20% of them were active in at least one assay; those are over-represented in the sample as a whole.

- molecule: "Nc1ccc(-c2ccc(N)c(Br)c2)cc1Br"
  target.of.assay: "MDA-MB-435 melanoma"
  growth / %: 1.83
- molecule: "N#CSc1c[nH]c2ccc(/C=C/C(=O)/C=C(/C=C/c3ccc4[nH]cc(SC#N)c4c3)OB(F)F)cc12"
  target.of.assay: "MDA-MB-435 melanoma"
  growth / %: -77.4
- molecule: "O=C(/C=C/c1ccc(F)cc1)Nc1ncc(Cc2ccc(F)cc2)s1"
  target.of.assay: "MDA-MB-435 melanoma"
  growth / %: -48.2
- molecule: "COc1ccc(-c2nnc3n(C)c(=O)c4ccccc4n23)cc1O"
  target.of.assay: "MDA-MB-435 melanoma"
  growth / %: -40.8
- molecule: "CN1C(=O)N(C)C2(c3ccccc3)N(CC(=O)Nc3ccccc3O)C(=O)NC12c1ccccc1 (centres undefined)"
  target.of.assay: "MDA-MB-435 melanoma"
  growth / %: 106
- molecule: "O=C(Cn1cc(CN2CCN(c3ccnc4cc(Cl)ccc34)CC2)nn1)Nc1cccc([N+](=O)[O-])c1"
  target.of.assay: "MDA-MB-435 melanoma"
  growth / %: 98.7
- molecule: "COc1ccc(/C(C)=C(\\c2ccc(OCCN3CCOCC3)cc2)c2ccc(OC(=O)C3CCCCC3)cc2)cc1"
  target.of.assay: "MDA-MB-435 melanoma"
  growth / %: 105
- molecule: "C[C@@H]1O[C@@H](O[C@H]2[C@@H](OC(=O)[C@]34CCC(C)(C)C[C@H]3C3=CC[C@@H]5[C@@]6(C)C[C@H](O)[C@H](O[C@@H]7O[C@H](CO)[C@@H](O)[C@H](O)[C@H]7O)[C@@](C)(CO)[C@@H]6CC[C@@]5(C)[C@]3(C)C[C@H]4O)OC[C@@H](O)[C@@H]2O)[C@H](O)[C@H](O[C@@H]2OC[C@@H](O)[C@H](O[C@@H]3OC[C@](O)(CO)[C@H]3O[C@@H]3OC[C@@H](O)[C@H](O)[C@H]3O)[C@H]2O)[C@H]1O[C@@H]1OC[C@](O)(CO)[C@H]1O"
  target.of.assay: "MDA-MB-435 melanoma"
  growth / %: 52.1
- molecule: "CN1CCCc2cc(/C=C3\\SC(=S)N(C(Cc4ccc(O)cc4)C(=O)O)C3=O)ccc21 (centres undefined)"
  target.of.assay: "MDA-MB-435 melanoma"
  growth / %: 103
